Let's look at some binders and their measured IC50.
target: HLA-DR DRB1*1302 (human); assay: competition with 125I-labeled reference peptide, purified HLA
Answer in µM, number only, no unit symbol.

Check out these entries, answers already filled in.
binder: RREVHIYYLEKANKI (modifications not checked) [Flu.PA.127]
assay result: 0.15
--
binder: FNPMIVELAEKTMKE (modifications not checked) [Flu.PA.12]
assay result: 1.25

As a next step, examine the binder that follows.
Query: IC50; subject: QLLLEVEQEIRTFSF (modifications not checked) [Flu.NS2.180] 13.2

The origin of these recorded values is patent US20080032921A1.
